# Protocol: Restrictive medium S. cerevisiae growth inhibition, OD615, pilot screen of yeast lifespan reduction project, restrictive growth control (AID 706);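 note: modified DeaD lifespan yeast strain shifted to restrictive glucose medium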
# Condition details: OD615, 48 h, at 10 µM, active compounds read high
Measured metric: growth inhibition (%)
Answer with a number only, understood to be in %.

For this compound ( "CN1CCN(CCCNC(=O)c2cc3c(=O)n(C)c4ccccc4c3s2)CC1" ), measured growth inhibition is -4.68

---

# Protocol: RAM signaling pathway blockade in yeast – S. cerevisiae, Pdr1DBD-CYC8 efflux-inhibited sensitized strain, primary screen (AID 1298);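 note: 0% = DMSO untreated cells without growth and 100% = 10 µM 1-NA-PP1 full growth; higher means more yeast growth rescued from 5-FOA killing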
# Condition details: S. cerevisiae cbk1-as DSE1-URA3 strain, 5-FOA growth OD615, 2 d; at 50 µM; active compounds read high
The source made the active and inactive calls.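 How the source made its calls: active means RAM network inhibition above 8.4% in each of two replicates, 3 SD over the compound average; inconclusive means above 8.4% inhibition in only one replicate; inactive means 8.4% inhibition or less in each replicate.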
RAM network inhibition reference

COc1ccc(-c2cn3c(C)c(C(=O)N4CCc5ccccc5C4)sc3n2)cc1 : 4.47% (inactive)
CC1=CC(C)(C)N(C(=O)CSc2nnc(-c3ccccc3)o2)c2ccc(C)cc21 : 6.03% (inactive)
Cc1cc(F)ccc1S(=O)(=O)Nc1c(C)n(C)n(-c2ccccc2)c1=O : 2.26% (inactive)
Cn1c(SCC(=O)N2CCCCCC2)nc2c([nH]c3ccccc32)c1=O : 8.37% (inactive)
COc1ccc(OC)c(S(=O)(=O)N2CCCCC2C(=O)N2CCN(c3ccccn3)CC2)c1 (stereo not given) : 7.83% (inactive)

For this compound ( CC(=O)NC(C)(C)C1CC=C(C)/C(=N\O)C1 (stereo not given) ), measured RAM network inhibition is -0.78% (inactive)

For this compound ( "CN(CCNC(=O)c1cc2c(=O)n(C)c3ccccc3c2n1C)Cc1ccccc1" ), measured RAM network inhibition is -0.47% (inactive)

For this compound ( "CCSC1=N/C(=C\c2ccc(C(=O)O)cc2)C(=O)S1" ), measured RAM network inhibition is 8.27% (inactive)

For this compound ( "O=C(Cn1ncc2c(=O)oc3ccccc3c21)N1CCCN(Cc2ccccc2F)C1" ), measured RAM network inhibition is 1.79% (inactive)

For this compound ( "CCOC(=O)N1CCN(C(=O)CCc2nc3sc4c(c3c(=O)[nH]2)CCCC4)CC1" ), measured RAM network inhibition is 3.99% (inactive)
